# Experimental Target: human recombinant CblC wild type (Homo sapiens, UniProt Q9Y4U1)
# Sequence (Q9Y4U1 1-282): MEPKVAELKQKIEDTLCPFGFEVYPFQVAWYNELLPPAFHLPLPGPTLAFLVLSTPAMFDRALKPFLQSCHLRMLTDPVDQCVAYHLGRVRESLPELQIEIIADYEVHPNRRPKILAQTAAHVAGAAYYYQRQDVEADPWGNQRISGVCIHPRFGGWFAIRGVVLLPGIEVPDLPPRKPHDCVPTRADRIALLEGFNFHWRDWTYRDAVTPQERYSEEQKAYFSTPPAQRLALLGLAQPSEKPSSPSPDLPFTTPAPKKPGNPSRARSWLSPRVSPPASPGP
# Assay type: biochemical
# Run Conditions: human, pH 7.6
Result Type: Half-life of beta-axial ligand removal, Wild type CblC (min)
Hi! Could you send only the number? It should be in min, unit omitted.

Molecule	Readout Unit	Data Value
CC1=C2N=C(C=C3N=C(C(C)=C4[N-]C(C(CC(N)=O)C4(C)CCC(=O)NCC(C)OP(=O)([O-])OC4C(CO)OC(n5cnc6cc(C)c(C)cc65)C4O)C4(C)N=C1C(CCC(N)=O)C4(C)CC(N)=O)C(CCC(N)=O)C3(C)C)C(CCC(N)=O)C2(C)CC(N)=O.CS[CH2][Co+2] (stereo not drawn) [Me—S—MeCbl]	min	8.5

Now consider a different molecule.
What value of Half-life of beta-axial ligand removal, Wild type CblC on human recombinant CblC wild type (Homo sapiens, UniProt Q9Y4U1) does C/C1=C2N=C(/C=C3N=C(/C(C)=C4\[N-]C(C(CC(N)=O)C4(C)CCC(=O)NCC(C)OP(=O)([O-])OC4C(CO)OC(n5cnc6cc(C)c(C)cc65)C4O)C4(C)N=C1C(CCC(N)=O)C4(C)CC(N)=O)C(CCC(N)=O)C\3(C)C)C(CCC(N)=O)C/2(C)CC(N)=O.NC(CCC(=O)NC(C[S-])C(=O)NCC(=O)O)C(=O)O.[Co+3] (stereo not drawn) [GSCbl, glutathionylcobalamin, reference compound] have? 2.5

----------
# Experimental Target: human recombinant CblC pathogenic mutant Arg161Gly (Homo sapiens, UniProt Q9Y4U1, R161G)
# Type: biochemical
# Run Conditions: human, pH 7.6
Result Type: Half-life of beta-axial ligand removal, Mutant Arg161Gly (min)
Hi! Could you send only the number? It should be in min, unit omitted.

Sample records with Half-life of beta-axial ligand removal, Mutant Arg161Gly:
Compound	Data Value
CC1=C2N=C(C=C3N=C(C(C)=C4[N-]C(C(CC(N)=O)C4(C)CCC(=O)NCC(C)OP(=O)([O-])OC4C(CO)OC(n5cnc6cc(C)c(C)cc65)C4O)C4(C)N=C1C(CCC(N)=O)C4(C)CC(N)=O)C(CCC(N)=O)C3(C)C)C(CCC(N)=O)C2(C)CC(N)=O.CCC[CH2][Co+2] (centres unmarked) [BuCbl, butylcobalamin, reference compound]	0
CC1=C2N=C(C=C3N=C(C(C)=C4[N-]C(C(CC(N)=O)C4(C)CCC(=O)NCC(C)OP(=O)([O-])OC4C(CO)OC(n5cnc6cc(C)c(C)cc65)C4O)C4(C)N=C1C(CCC(N)=O)C4(C)CC(N)=O)C(CCC(N)=O)C3(C)C)C(CCC(N)=O)C2(C)CC(N)=O.CC[CH2][Co+2] (centres unmarked) [PrCbl, propylcobalamin, reference compound]	0
CC1=C2N=C(C=C3N=C(C(C)=C4[N-]C(C(CC(N)=O)C4(C)CCC(=O)NCC(C)OP(=O)([O-])OC4C(CO)OC(n5cnc6cc(C)c(C)cc65)C4O)C4(C)N=C1C(CCC(N)=O)C4(C)CC(N)=O)C(CCC(N)=O)C3(C)C)C(CCC(N)=O)C2(C)CC(N)=O.NCC[S][Co+2] (centres unmarked) [CyaCbl]	2.1

Entry under review: C/C1=C2N=C(/C=C3N=C(/C(C)=C4\[N-]C(C(CC(N)=O)C4(C)CCC(=O)NCC(C)OP(=O)([O-])OC4C(CO)OC(n5cnc6cc(C)c(C)cc65)C4O)C4(C)N=C1C(CCC(N)=O)C4(C)CC(N)=O)C(CCC(N)=O)C\3(C)C)C(CCC(N)=O)C/2(C)CC(N)=O.NC(CCC(=O)NC(C[S-])C(=O)NCC(=O)O)C(=O)O.[Co+3] (centres unmarked) [GSCbl, glutathionylcobalamin, reference compound] . Reported Half-life of beta-axial ligand removal, Mutant Arg161Gly? 9.8

Entry under review: CC([S][Co+2])C(=O)NCC(=O)O.CC1=C2N=C(C=C3N=C(C(C)=C4[N-]C(C(CC(N)=O)C4(C)CCC(=O)NCC(C)OP(=O)([O-])OC4C(CO)OC(n5cnc6cc(C)c(C)cc65)C4O)C4(C)N=C1C(CCC(N)=O)C4(C)CC(N)=O)C(CCC(N)=O)C3(C)C)C(CCC(N)=O)C2(C)CC(N)=O (centres unmarked) [MPGCbl] . Reported Half-life of beta-axial ligand removal, Mutant Arg161Gly? 1.5
